# study.target: T1, hRET.mFc (human)
# T1 construct: also called dimeric human RET
# experimental.protocol: SPR Biacore T200, mAb capture, 37 C
test.readout: t½

- binder: "H4H8066P (antibody, human IgG4, V domains shown, human IgG4 Fc (H4H prefix)) VH: EVQLVESGGGLVQPGGSLRLSCEASGFTFSRYAMTWVRQAPGKGLEWVSGISGSGGSTFYVDSLQGRFTLSRDNSKHTLFLQMNSLRAEDTAIYYCAKENTYGHFDYWGQGTLVTVSS VL: DIQLTQSPSFLSASVGDRVTITCWASQDISTYLAWYQQKPGKAPQVLIYAASSLQYGVPSRFSGSGSGTEFTLTITSLQPEDFATYYCQQLIGYPYIFGQGTKLEIK"
  test.readout: "t½"
  experimental.value: "34 min"
- binder: "H4H8080P (antibody, human IgG4, V domains shown, human IgG4 Fc (H4H prefix)) VH: EVQLVESGGGLVQSGGSLRLSCVASGFTFSTYAMTWVRQAPGRGLEWVSAISGSGASTYYADSLKGRFTVSRDNSKNTLYLQMNSLRAEDTAVYYCSKDHRNYDSDYDMDVWGQGTTVTVSS VL: DIQMTQSPSSLSASVGDRVTITCRASQGIRNYLGWYQQKPGKAPKRLIYTASSLQSGVPSRFRGSGSGTEFTLTISSLQPEDFATYYCLQHNSYPYTFGQGTKLEIK"
  test.readout: "t½"
  experimental.value: "11 min"
- binder: "H4H8084P (antibody, human IgG4, V domains shown, human IgG4 Fc (H4H prefix)) VH: QVQLVESGGGVVQPGRSLRLSCEASGFTFRNYGMHWVRQAPGKGLDWVSTIYYDGSDEYYSDSVKGRFTISRDNSKNTLYLQMNSLRAEDTAVYYCARDPPSFRYFDYWGQGTLVTVSS VL: DIQMTQSPSTLSASVGDRVTITCRASQSIRSWLTWYQQKPGKAPKVLIYKASTLERGVPSRFSGSGSGTEFTLTISSLQPEDFATYYCHQYSSYSYTFGQGTKLEIK"
  test.readout: "t½"
  experimental.value: "14 min"
